# Tested on: biotinyl-Ile-oxazolone
# PROTOCOL_DESCRIPTION: self-aminoacylation, catalytic enhancement (BIO) (fold over background); higher = more active; k-Seq, kA / k0A0; sequences stand for … in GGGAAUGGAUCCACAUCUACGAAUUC…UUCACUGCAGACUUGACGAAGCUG
This sample holds only a part of the variants without activity.

RESIDUE_SEQUENCE	self-aminoacylation
CCACGAUUCAAGCAAUCGGUC [Fam1B.1 aminoacylation ribozyme variant]	1.51
AAGAUUGCUAAUAGUCGCGAG [Fam3.1 aminoacylation ribozyme variant]	1.3
CAGCUUGCUAAUAGUCGCAAG [Fam3.1 aminoacylation ribozyme variant]	1.82
CCACACUACAAGCAAUCGCUC [Fam1B.1 aminoacylation ribozyme variant]	1.22
AUUACCCUGGUAAUCCAGUGA [Fam2.1 aminoacylation ribozyme variant]	4.07
CUAGUUCAAACAAUCGGUCUC [Fam1A.1 aminoacylation ribozyme variant]	0.896
ACUACGCUGGUCAUCGAGUGA [Fam2.1 aminoacylation ribozyme variant]	4.74
CGACACUUCAAUCAAUCGGUC [Fam1B.1 aminoacylation ribozyme variant]	1.04
GAGUUAGCUAAUAGUCGCAAG [Fam3.1 aminoacylation ribozyme variant]	2.14
AUUACUCUGGUCAUCUAGUGA [Fam2.1 aminoacylation ribozyme variant]	4.55
AUUCAGCUAUGUCAUCGGGUG [Fam2.2 aminoacylation ribozyme variant]	2.19
CUACUUCAAACAAUUAGUCUG [Fam1A.1 aminoacylation ribozyme variant]	0.891
AUUACCCUGGUCACCGAAUGA [Fam2.1 aminoacylation ribozyme variant]	0.992
AUUAUCCUGGUCAUCGAGAGA [Fam2.1 aminoacylation ribozyme variant]	1.08
CUGCUUCAAACAAUCUGUCUG [Fam1A.1 aminoacylation ribozyme variant]	0.604
AACUUUGCUAAUAUUCGCAAG [Fam3.1 aminoacylation ribozyme variant]	1.76
AUUCGCCUAGAUCAUCGGGUG [Fam2.2 aminoacylation ribozyme variant]	2.08
AUUACACUUGUCAUCGAGUGA [Fam2.1 aminoacylation ribozyme variant]	2.51
GCACACUUCAAGCAAUCGGUA [Fam1B.1 aminoacylation ribozyme variant]	2.84

====

# System: biotinyl-Ile-oxazolone
# PROTOCOL_DESCRIPTION: self-aminoacylation, catalytic enhancement (BIO) (fold over background); higher = more active; k-Seq, kA / k0A0; sequences stand for … in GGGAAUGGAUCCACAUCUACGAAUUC…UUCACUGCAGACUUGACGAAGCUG
Variants at the floor of the assay were thinned out.
Entry flag: Condition met if self-aminoacylation reaches 2; Condition not met if it does not.

RESIDUE_SEQUENCE	CLASS_ASSIGNMENT
UUUACCCUGGUCAUAGAGUGA [Fam2.1 aminoacylation ribozyme variant]	Condition met
AAGUUUACUAAUAGACGCAAG [Fam3.1 aminoacylation ribozyme variant]	Condition not met
CCACACUGCAAGCAAUCAGUC [Fam1B.1 aminoacylation ribozyme variant]	Condition not met
AUUUACCUAGAUCAUCGGGUG [Fam2.2 aminoacylation ribozyme variant]	Condition met
CUACACUUCAAGCAAUAGGUC [Fam1B.1 aminoacylation ribozyme variant]	Condition not met
ACUCACCUAGGUAAUCGGGUG [Fam2.2 aminoacylation ribozyme variant]	Condition met
CGACACUCCAAGCAAUCGGUC [Fam1B.1 aminoacylation ribozyme variant]	Condition not met
